Molecular target: JAK1 (Homo sapiens (Human), UniProt P23458)
Sequence (P23458 875-1153): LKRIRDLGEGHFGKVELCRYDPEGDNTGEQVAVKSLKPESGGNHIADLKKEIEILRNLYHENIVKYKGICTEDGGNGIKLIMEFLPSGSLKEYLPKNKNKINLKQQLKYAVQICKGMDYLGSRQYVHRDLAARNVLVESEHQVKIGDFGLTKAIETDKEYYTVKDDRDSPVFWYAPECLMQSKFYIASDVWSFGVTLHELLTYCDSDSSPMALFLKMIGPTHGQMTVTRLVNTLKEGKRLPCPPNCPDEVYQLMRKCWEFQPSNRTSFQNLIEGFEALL
Test: Jak biochemical HTRF assay, JAK1
Settings: recombinant purified GST-tagged catalytic domain; HTRF format; [ATP] 31.8 μM
Please go through the items and note down their IC50.

// recorded IC50 for N#CCC1(COC(=O)N2CC[C@@H](n3cc(C(N)=O)c(Nc4ccc(F)cc4)n3)[C@H](C#N)C2)CC1 (racemic) : 25 nM

// recorded IC50 for N#C[C@@H]1CNCCC1n1cc(C(N)=O)c(Nc2ccc(F)cc2)n1 (mixture of isomers) : 102 nM

// recorded IC50 for CCOC(=O)N1CC[C@H](n2cc(C(N)=O)c(Nc3ccc(F)cc3)n2)[C@H](C#N)C1 (racemic) : 200 nM

// recorded IC50 for N#C[C@@H]1CN(C(=O)OC2CCOC2)CC[C@@H]1n1cc(C(N)=O)c(Nc2ccc(F)cc2)n1 (mixture of isomers) : 212 nM
